- assay-details: qHTS of pediatric cancer cell lines to identify multiple opportunities for drug repurposing: Primary screen for U-2 OS cells (AID 1347096);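 also: plate controls were DMSO wells for no effect and bortezomib positive control wells for full effect; nearly all actives have a fitted effect of over 50% in size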
- assay-setup: U-2 OS viability, CellTiter-Glo luminescence, 48 h; series mostly up to 46 µM
Records with an inconclusive call do not appear. Activity calls are given as the source filed them. Calls follow the shape of the dose curve; as a rule, active = well fitted cell-killing curve with a large enough effect; inconclusive = small, poorly fitted or top-dose-only effect; inactive = flat fitted curve, though single readings scatter.
observable: activity change, negative = cytotoxic

INSERT INTO measurements (compound, reported_measurement) VALUES
  ('CC1(C)Oc2ccc(C#N)cc2[C@@H](N2CCCC2=O)[C@@H]1O', 'inactive'),
  ('CC1=C(/C=C/C(C)=C/C=C/C(C)=C/C(=O)O)C(C)(C)CCC1', 'inactive'),
  ('O=c1[nH]c(=O)c2[nH]c(=O)[nH]c2[nH]1', '-0.365% [at 9.22 µM] (inactive)'),
  ('CNCC(O)c1ccc(O)c(O)c1 (stereo not drawn)', 'inactive'),
  ('OCCN1CCN(CCCN2c3ccccc3Sc3ccc(Cl)cc32)CC1', 'inactive'),
  ('O=C1O[C@H](CO)[C@@H](O)[C@H](O)[C@H]1O', 'inactive'),
  ('CCC(=O)Nc1ccc(O)cc1', 'inactive'),
  ('CCOC(CN1CCN(CC(C)C(=O)c2ccccc2)CC1)c1ccccc1 (stereo not drawn)', 'inactive'),
  ('CN(C)CCCN1c2ccccc2CCc2ccccc21', 'inactive'),
  ('NC(N)=NCCC[C@H](N)C(=O)O', '2.69% [at 4.84 µM] (inactive)'),
  ('CCn1cc(C(=O)O)c(=O)c2cnc(N3CCNCC3)nc21', 'inactive'),
  ('CCCCOC(=O)c1ccc(O)cc1', 'inactive'),
  ('[Cl][In]([Cl])[Cl]', 'inactive'),
  ('C#CCN(C)Cc1ccccc1', 'inactive'),
  ('Cn1cc[nH]c1=S', 'inactive'),
  ('CCC(=O)c1ccc(O)cc1', 'inactive'),
  ('NCCNCCNCCNCCN', '-3.22% [at 9.22 µM] (inactive)'),
  ('[O-][n+]1cccc(CO)c1', 'inactive'),
  ('NC(=O)c1ncn([C@@H]2O[C@H](CO)[C@@H](O)[C@H]2O)n1', 'inactive'),
  ('Nc1ccc(S(=O)(=O)Nc2ccc(Cl)nn2)cc1', 'inactive'),
  ('Cc1ccc(C(C)C)cc2c(C)ccc1-2', 'inactive'),
  ('O=C(O)c1ccccc1O', 'inactive'),
  ('C[C@](N)(Cc1ccc(O)cc1)C(=O)O', '7.56% [at 4.84 µM] (inactive)'),
  ('COc1cc(C)c(Cc2cnc(N)nc2N)cc1OC', 'inactive'),
  ('CCCCCCCCCCCCOS(=O)(=O)O', 'inactive'),
  ('O=C1NC(=O)[C@@]2(CCOc3ccc(F)cc32)N1', 'inactive'),
  ('O=C1N=C(O)CN1/N=C/c1ccc(-c2ccc([N+](=O)[O-])cc2)o1', 'inactive'),
  ('O=c1cc[nH]c(=S)[nH]1', 'inactive');

---

- experimental-target: Voltage-gated inwardly rectifying potassium channel KCNH2 (Homo sapiens) (UniProt Q12809)
- Sequence (Q12809 whole entry, looked up): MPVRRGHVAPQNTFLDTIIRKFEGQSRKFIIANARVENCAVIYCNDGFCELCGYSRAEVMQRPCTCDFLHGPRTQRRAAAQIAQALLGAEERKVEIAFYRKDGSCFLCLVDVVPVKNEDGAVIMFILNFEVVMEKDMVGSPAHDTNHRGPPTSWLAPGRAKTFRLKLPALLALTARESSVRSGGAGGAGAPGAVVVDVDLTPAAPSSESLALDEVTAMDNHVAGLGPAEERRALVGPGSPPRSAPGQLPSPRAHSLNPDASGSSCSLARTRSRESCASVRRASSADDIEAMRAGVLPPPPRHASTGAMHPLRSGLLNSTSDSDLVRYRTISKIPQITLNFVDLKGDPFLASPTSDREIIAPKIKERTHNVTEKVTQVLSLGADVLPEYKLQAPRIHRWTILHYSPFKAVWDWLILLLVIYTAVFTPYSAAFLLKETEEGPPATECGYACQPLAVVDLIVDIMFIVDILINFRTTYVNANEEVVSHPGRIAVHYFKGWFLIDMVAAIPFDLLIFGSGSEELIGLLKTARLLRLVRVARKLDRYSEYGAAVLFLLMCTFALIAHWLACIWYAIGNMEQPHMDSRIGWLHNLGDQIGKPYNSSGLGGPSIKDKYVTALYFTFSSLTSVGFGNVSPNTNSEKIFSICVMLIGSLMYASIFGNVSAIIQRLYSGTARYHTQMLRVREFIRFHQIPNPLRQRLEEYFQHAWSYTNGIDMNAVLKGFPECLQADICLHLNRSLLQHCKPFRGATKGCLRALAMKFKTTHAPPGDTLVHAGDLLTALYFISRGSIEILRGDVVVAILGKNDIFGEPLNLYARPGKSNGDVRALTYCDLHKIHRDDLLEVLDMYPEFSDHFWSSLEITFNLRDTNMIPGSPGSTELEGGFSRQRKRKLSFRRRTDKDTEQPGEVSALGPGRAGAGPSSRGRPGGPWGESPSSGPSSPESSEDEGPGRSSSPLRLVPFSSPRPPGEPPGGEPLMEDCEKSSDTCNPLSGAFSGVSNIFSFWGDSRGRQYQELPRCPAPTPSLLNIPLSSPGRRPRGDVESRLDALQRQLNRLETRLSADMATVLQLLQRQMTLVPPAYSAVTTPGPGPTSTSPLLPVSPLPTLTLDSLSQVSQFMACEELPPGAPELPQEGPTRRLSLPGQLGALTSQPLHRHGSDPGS
- assay-details: qHTS Assay for Small Molecule Inhibitors of the Human hERG Channel Activity (AID 588834);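 also: lower thallium flux fluorescence means stronger hERG block; nearly all actives have a fitted effect of over 50% in size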
- assay-setup: U2OS BacMam hERG, FluxOR thallium flux fluorescence; series mostly up to 46.1 µM
Records with an inconclusive call do not appear. Activity calls are given as the source filed them. Calls come from the whole dose curve; as a rule, active = well fitted inhibition curve with a large enough effect; inconclusive = small, poorly fitted or top-dose-only effect; inactive = flat fitted curve, though single readings scatter.
Possible outcomes: 1.0 for active, 0.0 for inactive

INSERT INTO results (molecule, answer_label) VALUES
  ('O=C1O[C@H]([C@@H](O)CO)C(O)=C1O', 0.0),
  ('OCC(CO)N[C@H]1C[C@](O)(CO)[C@@H](O)[C@H](O)[C@H]1O', 0.0),
  ('CC(=O)c1ccc2c(c1)N(CCCN(C)C)c1ccccc1S2', 1.0),
  ('CCOC(=O)c1ccc(O)cc1', 0.0),
  ('CCN(CC)C(=O)Nc1ccc(OCC(O)CNC(C)(C)C)c(C(C)=O)c1 (stereo not drawn)', 0.0),
  ('Cc1cc(CC(=O)O)n(C)c1C(=O)c1ccc(Cl)cc1', 0.0),
  ('NCC(=O)CCC(=O)O', 0.0),
  ('CCCc1c(OCCCCc2nn[nH]n2)ccc(C(C)=O)c1O', 0.0),
  ('CC(C)(C)NCC(O)COc1ccc(NC(=O)NC2CCCCC2)cc1 (stereo not drawn)', 0.0),
  ('Oc1cn2c(n1)Nc1ccc(Cl)c(Cl)c1C2', 0.0),
  ('O=S(=O)(O)NC1CCCCC1', 0.0),
  ('O=C1OC(OC(=O)c2cccnc2Nc2cccc(C(F)(F)F)c2)c2ccccc21 (stereo not drawn)', 0.0),
  ('CC1(C)CO[C@@H](CC(=O)O)CN1', 0.0);

---

- assay-details: qHTS profiling for inhibitors of Plasmodium falciparum proliferation (AID 504749); also: nearly all actives have a fitted effect of over 60% in size;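 as to activity, negative = inhibition: 0% = DMSO vehicle and full inhibition = artemisinin control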
- assay-setup: P. falciparum in erythrocytes, SYBR Green DNA, 72 h; at 12.8 µM (top of the series); parasite line B
- Method: NIH National Institute of Allergy and Infectious Diseases [NIAID] NIH Chemical Genomics Center [NCGC] […] Because mature erythrocytes lack DNA, only Plasmodium-derived DNA is detected. NCGC Assay Protocol Summary: The SYBR Green viability assay was adapted from a method described previously (Plouffe et al., 2008). […] The following morning, fluorescence intensity at 485(14) nm excitation and 535(25) nm emission wavelengths was measured on an EnVision (Perkin Elmer) plate reader. […]
Records with an inconclusive call do not appear. The source made the active and inactive calls. The call rests on the fitted dose curve; in most records, active means well fitted inhibition curve with a large enough effect; inconclusive means small, poorly fitted or top-dose-only effect; inactive means flat fitted curve, though single readings scatter.
Below: a set of entries, each annotated with reported activity, negative = inhibition.
observable: activity, negative = inhibition

INSERT INTO results (structure_smiles_string, observable, reported_measurement) VALUES
  ('Cc1cc2c(cc1S(N)(=O)=O)S(=O)(=O)CCC2', 'activity, negative = inhibition', '2.51% (inactive)'),
  ('CCCCN(CCCC)CCCOC(=O)c1ccc(N)cc1', 'activity, negative = inhibition', '3.88% (inactive)'),
  ('CCCCOc1cc(C(=O)OCCN(CC)CC)ccc1N', 'activity, negative = inhibition', '4.89% (inactive)'),
  ('C#CCN(C)Cc1ccccc1', 'activity, negative = inhibition', '-0.897% (inactive)');

---

- Test system: W2
- assay-details: qHTS profiling for inhibitors of Plasmodium falciparum proliferation (AID 504749); also: nearly all actives have a fitted effect of over 60% in size
- assay-setup: P. falciparum in erythrocytes, SYBR Green DNA, 72 h; series mostly up to 28.7 µM
Records with an inconclusive call do not appear. The source made the active and inactive calls. Calls follow the shape of the dose curve; as a rule, active = well fitted inhibition curve with a large enough effect; inconclusive = small, poorly fitted or top-dose-only effect; inactive = flat fitted curve, though single readings scatter.
Possible outcomes: active, inactive

INSERT INTO measurements (compound, answer_label) VALUES
  ('CC1(C)OC(=O)NC1=O', 'inactive'),
  ('O=S(=O)(O)c1cc(I)c(O)c2ncccc12', 'inactive'),
  ('O=C1OC(OC(=O)c2cccnc2Nc2cccc(C(F)(F)F)c2)c2ccccc21 (configuration not stated)', 'inactive'),
  ('NC(=O)NNc1ccccc1', 'inactive'),
  ('Nc1nc2c(ncn2CCC(CO)CO)c(=O)[nH]1', 'inactive'),
  ('[O-][n+]1cccc(CO)c1', 'inactive'),
  ('O=c1[nH]c(=O)c2[nH]c(=O)[nH]c2[nH]1', 'inactive'),
  ('O=C1NC(=O)[C@@]2(CCOc3ccc(F)cc32)N1', 'inactive'),
  ('CCCCCCCCCCCCCCCC(=O)NCCO', 'inactive'),
  ('Cc1cc(CC(=O)O)n(C)c1C(=O)c1ccc(Cl)cc1', 'inactive'),
  ('CNC(=O)Oc1ccc2c(c1)[C@]1(C)CCN(C)[C@@H]1N2C', 'active'),
  ('CCCCCCCCCCCCOS(=O)(=O)O', 'inactive'),
  ('NCCNCCNCCNCCN', 'inactive'),
  ('CNCCC(Oc1ccc(C(F)(F)F)cc1)c1ccccc1 (configuration not stated)', 'active'),
  ('Cc1ncc(COP(=O)(O)O)c(C=O)c1O', 'inactive'),
  ('O=C1c2c(O)cccc2Cc2cccc(O)c21', 'inactive'),
  ('C[C@H]1O[C@@H](n2cc(F)c(=O)[nH]c2=O)[C@H](O)[C@@H]1O', 'inactive'),
  ('CCC(=O)c1ccc(O)cc1', 'inactive'),
  ('COCCOC(=O)C1=C(C)NC(C)=C(C(=O)OC/C=C/c2ccccc2)C1c1cccc([N+](=O)[O-])c1 (configuration not stated)', 'active'),
  ('COc1cc2[nH]c(=O)[nH]c(=O)c2cc1OC', 'inactive'),
  ('CN1CCC[C@@H]1Cc1c[nH]c2ccc(CCS(=O)(=O)c3ccccc3)cc12', 'active'),
  ('OCCN1CCN(CCCN2c3ccccc3Sc3ccc(Cl)cc32)CC1', 'active'),
  ('NS(=O)(=O)c1cc2c(cc1Cl)NC(CSCc1ccccc1)=NS2(=O)=O', 'inactive'),
  ('CC(=O)Nc1ccc(/C=N/NC(N)=S)cc1', 'inactive'),
  ('COc1ccc(S(=O)(=O)Nc2nnc(CC(C)C)s2)cc1', 'inactive'),
  ('Nc1ccc(S(=O)(=O)NC(=O)c2ccccc2)cc1', 'inactive'),
  ('COc1ccccc1O', 'inactive');
